system: Oocyte; assay: Allosteric modulation of gamma-aminobutyric acid receptor A alpha1beta2gamma2S expressed in Xenopus oocytes assessed as potentiation of GABA-mediated chloride current at 1 uM by voltage clamp assay; format: cell-based
measured_attribute: Activity (%)
Answers are plain numbers, in %.

// below: answered molecules
Entry under test: CCc1cc2c(s1)N(C)C(=O)CN=C2c1ccccc1Cl . Its Activity was 260

In plain terms, Cc1ncc2n1-c1ccc(Cl)cc1C(c1ccccc1F)=NC2 has a documented Activity of 342

Lab book: Activity of CC1=C2[C@H](/C=C(\C)C(=O)O)CC[C@@H](C)[C@H]2CC1 noted as 400

Please examine the following record next.
Field Activity (entry Cc1nnc2n1-c1ccc(Cl)cc1C(c1ccccc1Cl)=NC2 ) reads 253
